The values you see were collected from PubChem BioAssay (NCI).

Test system: SF-268 CNS
Assay: NCI-60 one-dose screen, 48 h (100 = growth as untreated, 0 = no growth, -100 = all killed)
Details: 10 µM unless noted
About 83,000 compounds went through this panel and 20% of them were active in at least one assay; those are over-represented in the sample as a whole.
observationType: growth (%)
Give your result in % as a bare value.

Solved cases below.
{"columns": ["cpdSmiles", "testedSystem", "resultUnit", "growth"],
 "data": [
  ["O=C(C1=Cc2cc3ccccc3n2Cc2cnnn21)c1ccc(O)cc1", "SF-268 CNS", "%", 71.9],
  ["COc1ccc2[nH]cc(-c3nc(-c4c[nH]c5c(Cl)nccc45)cs3)c2c1", "SF-268 CNS", "%", 73]
]}

Let me check: O=C(O)/C=C/C(=O)Nc1cccc(Cn2nnc3cc(Cl)c(Cl)cc32)c1 , system SF-268 CNS, measured growth is 98.5

So the reported growth for N#Cc1c(Nc2ccc(N3CCOCC3)cc2)nc(SCC(=O)c2ccc(Br)cc2)nc1-c1ccccc1 , on SF-268 CNS, turned out to be 103

Test item Cc1nn(-c2ccccc2)c(N)c1N=C1NC(=O)/C(=C/c2ccc(Br)cc2)S1 ; SF-268 CNS; reported growth was 81.6

Per the reported SF-268 CNS data, O=C1Nc2c(C(=O)O)cccc2/C1=N/c1n[nH]c(=S)s1 has growth of 83.3

Lab entry: SF-268 CNS assay, molecule Cc1ccc(-c2nc(SCc3nc4cc(Cl)c(Cl)cc4[nH]3)[nH]c(=O)c2C#N)cc1 , growth = 91.6

GET /values?item= NC1=Nc2cc(OCCCCN3Cc4ccccc4C3)c(OCC3CC3)cc2C12CCCC2 &system= SF-268 CNS returns growth: 56.1

Summary line: C=CC(=O)Nc1ccc(Oc2nccc(Nc3nnc(-c4ccc(C)cc4)s3)n2)cc1 , SF-268 CNS, reported growth = 77.6

Let me check: C[C@]1(O)CC(=O)[C@]2(O)C3=C(C=C[C@]2(O)C1)C(=O)c1c(O)cccc1C3=O , system SF-268 CNS, measured growth is 85.4

Kindly note: SF-268 CNS, C/C(=N\O)[C@@H]1CC[C@]2(CO)CC[C@]3(C)[C@H](CC[C@@H]4[C@@]5(C)CCCNC(C)(C)[C@@H]5CC[C@]43C)[C@@H]12 , growth value reported: 84.7

* * *

Test system: MALME-3M melanoma
Experiment: NCI-60 one-dose screen, 48 h (100 = growth as untreated, 0 = no growth, -100 = all killed)
Details: 10 µM unless noted
The panel holds about 83,000 compounds, 20% with a hit somewhere; the sample as a whole holds those more often.
Measured growth of individual entries
Enter your answer as a number in %; do not include the unit.

Past entries and their recorded results:
{"columns": ["compound", "testedSystem", "resultUnit", "growth"],
 "data": [
  ["COc1ccc(C2=CC(c3cc(OC)c(OC)c(OC)c3)n3ncnc3N2)cc1 (configuration not stated)", "MALME-3M melanoma", "%", 75.8],
  ["COc1ccc(N2CCC(=S)NC2=S)cc1", "MALME-3M melanoma", "%", 101],
  ["C=C1C(=O)O[C@H]2[C@H]1CC/C(COC(=O)c1ccc(C(=O)O)s1)=C\\CC[C@@]1(C)O[C@@H]21", "MALME-3M melanoma", "%", 3.09]
]}

// field: growth; key: Oc1ccc(/C=C/c2ccc(O)cc2)cc1 ; value = 58.9

growth measured on CCCCNC(=O)Oc1ccc(/C(=C(/C)Cc2ccc(OC)cc2)c2ccc(OCCN3CCCCC3)cc2)cc1 = 79.1
